System: HCT-116 colon
Experiment: NCI tumour cell line growth inhibition, 48 h
Items are presented alongside their recorded TGI.

Consider the following illustrative entries.
[
  {
    "compound": "COc1cc2c(c(OC)c1OC)-c1c(c3ccc([N+](=O)[O-])cc3c(=O)n1CCCN)C2=O",
    "value": "1.53 µM"
  },
  {
    "compound": "CCCCC1(O)CC2CC1C(C)C2(C)C (configuration not stated)",
    "value": "> 100 µM"
  },
  {
    "compound": "Cc1ccc(C(=O)Nc2ncn(C3CC(O)C(CO)O3)c(=O)n2)cc1 (configuration not stated)",
    "value": "> 100 µM"
  },
  {
    "compound": "O=C(O)CCCN=C(C1=C(O)C(=O)N(c2ccccc2)C1=O)c1ccccc1",
    "value": "> 100 µM"
  },
  {
    "compound": "O=S(=O)(c1cc(Cl)ccc1Cl)N1CCN(c2cccc(Cl)c2)CC1",
    "value": "> 100 µM"
  },
  {
    "compound": "CC(C)C(Sc1nc(-c2ccccc2)c(-c2ccccc2)[nH]1)c1n[nH]c(=S)n1-c1ccccc1 (configuration not stated)",
    "value": "> 100 µM"
  }
]

We next turn to a different compound, shown below.
The recorded TGI for entry O=C(CSSCC(=O)Nc1ccc(Br)cc1)Nc1ccc(Br)cc1 equals 28.1 µM

---

System: HCT-15 colon
Experiment: NCI tumour cell line growth inhibition, 48 h
// values below are reported TGI

Sample records with TGI:
[
  {
    "compound": "O=C1/C(=C/c2ccc(O)c(O)c2)CC/C1=C\\c1ccc(O)c(O)c1",
    "TGI": "> 100 µM"
  },
  {
    "compound": "COP(=O)(OC)[C@H](O)[C@H]1C[C@@H]1c1ccccc1",
    "TGI": "> 100 µM"
  },
  {
    "compound": "CCOC(=O)C1(N)CC1",
    "TGI": "> 100 µM"
  }
]

Could you now look at the following compound, please?
For CCOC(=O)C(NC(=O)CC)(Nc1ccc(F)cc1F)C(F)(F)F (stereo not drawn) the compound record lists TGI as > 100 µM

---

System: U251 CNS
Select the matching outcome among y = active, n = inactive

Sample answers from the record:
[
  {
    "smilesString": "Cn1cc(C2=C(c3cn(CCCCCO)c4ccccc34)C(=O)NC2=O)c2ccccc21",
    "assignedClass": "n"
  },
  {
    "smilesString": "NC(=O)c1cc(Br)ccc1NC(=O)/C=C/c1ccccc1",
    "assignedClass": "n"
  },
  {
    "smilesString": "COc1cc2c(c(OC)c1OC)-c1c(c3ccc([N+](=O)[O-])cc3c(=O)n1CCCN)C2=O",
    "assignedClass": "n"
  },
  {
    "smilesString": "CN(C)CCNC(=O)c1ccc2oc3cc4ccccc4c(=O)n3c2c1",
    "assignedClass": "n"
  },
  {
    "smilesString": "COc1ccc(-c2[nH]nc(N)c2-c2cc(OC)c(OC)c(OC)c2)cc1",
    "assignedClass": "y"
  }
]

Query string: Please state the recorded outcome for this compound: COc1cc(CCNC(=O)OC(C)(C)C)c2c(c1OC)SSSSS2
Result string: n

Query string: Lab log entry: Cc1sc2c(c1C)C(c1ccc(Cl)cc1)=N[C@@H](CC(=O)NCCCN1CCN(C)CC1)c1nnc(C)n1-2 — outcome as called in the assay?
Result string: n

Query string: Hi, do you know how Oc1ccccc1/C=N\NC(=S)N/N=C/c1ccccc1O came out in this test?
Result string: n

---

System: A498 renal
Experiment: NCI tumour cell line growth inhibition, 48 h
Where a SMILES comes first, the peptide text is derived from it.
Listed below: TGI values for each entry.

Solved entries (count: 8):
[
  {
    "compound": "O=C(NC(Cc1ccc(Cl)cc1)C(=O)O)c1ccc(I)cc1 (centres undefined)",
    "TGI": "> 100 µM"
  },
  {
    "compound": "COc1cc(O)c2c(c1)C(=O)C1=C(C2=O)C(O)C[C@@](C)(O)C1 (some centres undefined)",
    "TGI": "3.29 µM"
  },
  {
    "compound": "O=C1[C@@H](O)[C@@H]2CCCC[C@@]23CCCN13",
    "TGI": "> 100 µM"
  },
  {
    "compound": "CC(C)=NNC(=S)NC12CC3CC(CC(C3)C1)C2",
    "TGI": "> 100 µM"
  },
  {
    "compound": "CC1=CC(=O)N(n2c(Cc3ccc(Cl)cc3)n[nH]c2=O)C1=O",
    "TGI": "> 100 µM"
  },
  {
    "compound": "CCOC(=O)CN(c1ccccc1)c1nc(=[N+](C)C)ss1",
    "TGI": "> 100 µM"
  },
  {
    "compound": "O=S(=O)(c1cc(Cl)ccc1Cl)N1CCN(c2cccc(Cl)c2)CC1",
    "TGI": "> 100 µM"
  },
  {
    "compound": "CCOC(=O)C1(N)CC1",
    "TGI": "> 100 µM"
  }
]

The compound CCC(C)C(NC(=O)C(CC(C)C)NC(=O)CNC(=O)C(NC(=O)C1CCCN1C(=O)C(CC(C)C)NC(=O)C(N)Cc1ccccc1)C(C)CC)C(=O)NC(CC(C)C)C(N)=O (centres undefined) (H-FLPIGLIL-NH2; configuration not given here) on A498 renal: TGI was > 75 µM

Entry C=CC(=O)N1CC[C@H](n2nc(C#Cc3cc(OC)cc(OC)c3)c3c(N)ncnc32)C1 : TGI on A498 renal = 1.6 µM

Lab note: compound COP(=O)(OC)[C@H](O)[C@H]1C[C@@H]1c1ccccc1 tested on A498 renal; recorded TGI was > 100 µM

Short answer on A498 renal for O=C(c1ccccc1)c1nc2ccc(C(F)(F)F)cc2nc1N1CCN(c2ccccc2)CC1 , TGI: 68.6 µM

Measured on A498 renal, COC(=O)Cn1c(=O)oc2nc(-c3ccccc3)cc(C(F)(F)F)c21 has a documented TGI of > 100 µM

// TGI (A498 renal) for O=C(O)CN(c1ccc(F)cc1)S(=O)(=O)c1ccccc1 = > 100 µM

// TGI (A498 renal) for C#CCOCn1cc(C)c(=O)[nH]c1=O = > 100 µM

Tested system A498 renal; TGI recorded for Cc1[nH]nc2ncc(C(=O)N3CCC[C@H]3c3ccc(Cl)cc3)cc12 was > 100 µM

TGI of CC(C)Cc1ccc(C(C)C(=O)NCc2ccc(Cn3c(=O)sn(CCCI)c3=O)cc2)cc1 (centres undefined) , assay on A498 renal, is 2.75 µM

# TGI measured on A498 renal for item C=C1CC2C3C=C(C)C4=CC(=O)CC[C@]4(C)C3CC[C@]2(C)[C@@]1(OC(C)=O)C(C)=O (some centres undefined) = > 100 µM

TGI of Cc1ccccc1C(C(=O)NC1CCCCC1)N(C(=O)CNc1ncccc1F)c1cccc(F)c1 (centres undefined) , assay on A498 renal, is > 100 µM

---

Tested on: NCI-H226 lung
Assay: NCI tumour cell line growth inhibition, 48 h; in the data active = GI50 below about 0.43 µM; inactive = the rest
Could you please pick one outcome from this set? label 1 (active), label 0 (inactive)

Query string: Answer briefly: the call reported for CN(C)CCS(=O)(=O)Nc1cc(-c2ccc3ncc(C#N)c(Nc4ccc(F)c(Cl)c4)c3c2)cnc1Cl in this assay.
Result string: label 1

Query string: Hi team, can someone confirm the assay call for Cc1ccsc1-c1ccc2c(c1)COC2(CCCN(C)C)c1ccc(F)cc1 (centres undefined) ?
Result string: label 0

Query string: Write down the call the test reported for this molecule. Item: C=CCOC(=O)Nc1cccn([C@H](CC(C)C)C(=O)NCCC(C)C)c1=O
Result string: label 0

Query string: Test call for this molecule, please: C=CC(=O)Nc1cccc(Oc2nc(Nc3ccc(N4CCN(C)CC4)cc3OC)ncc2Cl)c1
Result string: label 0

Query string: How was COc1ccc(Cn2cc3c(c2-c2cc(OC)c(OC)c(OC)c2)CCc2c(CO)noc2-3)cc1 classified in this test?
Result string: label 0

Query string: State the result this test recorded for O=C1c2c(Cl)c(Cl)c(Cl)c(Cl)c2C(=O)C2(Cl)CC=CCC12Cl (centres undefined) .
Result string: label 0

Query string: # outcome recorded in this test, key = Nc1ncn([C@H]2C[C@H](OP(=O)(O)OC[C@H]3O[C@@H](n4cnc5c(=O)[nH]c(N)nc54)C[C@@H]3O)[C@@H](CO)O2)c(=O)n1
Result string: label 0

Query string: Dear colleague, could you share the recorded outcome for C=C1C(=O)O[C@H]2[C@H]1CC/C(CNC(=O)/C=C/c1ccccc1F)=C\CC[C@@]1(C)O[C@@H]21 when you have a moment?
Result string: label 0

Query string: What was the test verdict on O=C1c2cc(F)ccc2-c2c1c1ccc([N+](=O)[O-])cc1c(=O)n2CCCBr ?
Result string: label 0

From: PubChem BioAssay (NCI)
